# Tested on: human maximum recommended daily dose, FDA database
# test: DSSTox (FDAMDD) FDA Maximum (Recommended) Daily Dose Database
# assay.context: TherapeuticCategory: anticoagulant; active compounds read low
One threshold, 0.001, splits the recorded maximum recommended daily dose (mmol/kg-bw/day) values: lower ones are label 1, equal or higher ones are label 0.

Check out these entries, answers already filled in.
CC(=O)CC(c1ccc([N+](=O)[O-])cc1)c1c(O)c2ccccc2oc1=O (stereo unspecified) : label 1
O=c1oc2ccccc2c(O)c1Cc1c(O)c2ccccc2oc1=O : label 0
CCC(c1ccccc1)c1c(O)c2ccccc2oc1=O (stereo unspecified) : label 0
CC(=O)CC(c1ccccc1)c1c(O)c2ccccc2oc1=O (stereo unspecified) : label 1
COc1ccc(C2C(=O)c3ccccc3C2=O)cc1 : label 0

With those in mind, consider the next molecule.
A record lists O=C1c2ccccc2C(=O)C1c1ccccc1 . Is its maximum recommended daily dose (mmol/kg-bw/day) below 0.001?
label 0

* * *

# Tested on: human maximum recommended daily dose, FDA database
# test: DSSTox (FDAMDD) FDA Maximum (Recommended) Daily Dose Database
# assay.context: TherapeuticCategory: analgesic; active compounds read low
measure: maximum recommended daily dose (mmol/kg-bw/day)
Provide a numeric answer; units are not to be included.

OCCN(CCO)CCO : 0.067
CCOc1ccccc1C(N)=O : 0.404
Nc1ccc(N=Nc2ccccc2)c(N)n1 : 0.0313
NC(=O)c1ccccc1O : 0.316
COc1ccc2c(c1)N(C[C@H](C)CN(C)C)c1ccccc1S2 : 0.0101
COc1cccc([C@@]2(O)CCCC[C@@H]2CN(C)C)c1 : 0.0253
COc1ccc2c3c1O[C@H]1C(=O)CC[C@H]4[C@@H](C2)N(C)CC[C@]314 : 0.00251
CN1CC[C@]23c4c5ccc(O)c4O[C@H]2C(=O)CC[C@H]3[C@H]1C5 : 0.0014

Consider the additional compound presented here.
I would be grateful if you could share the reported maximum recommended daily dose (mmol/kg-bw/day) for CCOC(=O)C1(c2ccccc2)CCCN(C)CC1 (centres undefined) .
0.0383

* * *

# System: human maximum recommended daily dose, FDA database
# test: DSSTox (FDAMDD) FDA Maximum (Recommended) Daily Dose Database
# assay.context: TherapeuticCategory: smooth muscle relaxant; cerebral vasodilator; active compounds read low
measure: maximum recommended daily dose (mmol/kg-bw/day)
Give the figure by itself; no unit, no explanation.

# query: maximum recommended daily dose (mmol/kg-bw/day) of entry COc1ccc(Cc2nccc3cc(OC)c(OC)cc23)cc1OC
0.0295

* * *

# System: human maximum recommended daily dose, FDA database
# test: DSSTox (FDAMDD) FDA Maximum (Recommended) Daily Dose Database
# assay.context: TherapeuticCategory: antithrombotic; active compounds read low
# From the text: The Food and Drug Administration (FDA) Center for Drug Evaluation and Research, Office of Pharmaceutical Science, Informatics and Computational Safety Analysis Staff's Maximum Recommended Daily Dose (FDAMDD) database contains values for over 1200 pharmaceuticals listed in Martindale: The Extra Pharmacopoeia (1973, 1983, and 1993) and The Physicians' Desk Reference (1995 and 1999). […]
measure: maximum recommended daily dose (mmol/kg-bw/day)

CC(C)(Oc1ccc(Cl)cc1)C(=O)NC(=O)NCN1CCOCC1 : 0.112

// moving on: another record for maximum recommended daily dose (mmol/kg-bw/day)
Fill blank: measured maximum recommended daily dose (mmol/kg-bw/day) of the compound COC(=O)[C@H](c1ccccc1Cl)N1CCc2sccc2C1 is ____.
0.00388
